target system: Bcr/Abl fusion protein (Homo sapiens)
Sequence (P00519 whole entry, the tested form may be a part): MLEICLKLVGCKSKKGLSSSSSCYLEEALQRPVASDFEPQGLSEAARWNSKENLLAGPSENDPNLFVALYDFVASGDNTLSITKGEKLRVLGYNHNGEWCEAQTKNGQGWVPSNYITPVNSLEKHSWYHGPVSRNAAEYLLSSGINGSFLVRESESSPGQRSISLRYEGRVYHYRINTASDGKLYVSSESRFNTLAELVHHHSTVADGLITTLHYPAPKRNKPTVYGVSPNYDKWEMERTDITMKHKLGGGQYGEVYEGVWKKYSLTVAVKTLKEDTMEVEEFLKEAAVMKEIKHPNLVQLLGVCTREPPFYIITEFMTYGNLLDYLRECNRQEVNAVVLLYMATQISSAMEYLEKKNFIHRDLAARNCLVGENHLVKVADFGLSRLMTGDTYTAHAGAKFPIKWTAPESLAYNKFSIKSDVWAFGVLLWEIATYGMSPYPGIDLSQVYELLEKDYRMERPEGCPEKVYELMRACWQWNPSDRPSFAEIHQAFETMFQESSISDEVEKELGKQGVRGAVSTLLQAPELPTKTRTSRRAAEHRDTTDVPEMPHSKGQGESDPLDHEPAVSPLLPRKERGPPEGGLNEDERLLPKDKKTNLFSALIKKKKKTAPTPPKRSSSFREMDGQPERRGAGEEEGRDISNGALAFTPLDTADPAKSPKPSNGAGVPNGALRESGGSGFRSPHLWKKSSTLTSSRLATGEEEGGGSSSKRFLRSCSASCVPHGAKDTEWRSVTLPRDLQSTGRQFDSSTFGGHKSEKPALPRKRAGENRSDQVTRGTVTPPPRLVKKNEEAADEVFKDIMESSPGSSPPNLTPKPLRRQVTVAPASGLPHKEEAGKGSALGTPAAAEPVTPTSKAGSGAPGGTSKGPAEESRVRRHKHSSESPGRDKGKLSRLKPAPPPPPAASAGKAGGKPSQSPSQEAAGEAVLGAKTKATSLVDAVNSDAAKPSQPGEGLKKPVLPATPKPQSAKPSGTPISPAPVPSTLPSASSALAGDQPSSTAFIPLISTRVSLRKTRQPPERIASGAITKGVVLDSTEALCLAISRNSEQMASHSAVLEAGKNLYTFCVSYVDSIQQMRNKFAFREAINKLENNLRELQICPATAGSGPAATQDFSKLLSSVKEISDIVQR
Sequence (P11274 whole entry, further chain, the tested form may be a part): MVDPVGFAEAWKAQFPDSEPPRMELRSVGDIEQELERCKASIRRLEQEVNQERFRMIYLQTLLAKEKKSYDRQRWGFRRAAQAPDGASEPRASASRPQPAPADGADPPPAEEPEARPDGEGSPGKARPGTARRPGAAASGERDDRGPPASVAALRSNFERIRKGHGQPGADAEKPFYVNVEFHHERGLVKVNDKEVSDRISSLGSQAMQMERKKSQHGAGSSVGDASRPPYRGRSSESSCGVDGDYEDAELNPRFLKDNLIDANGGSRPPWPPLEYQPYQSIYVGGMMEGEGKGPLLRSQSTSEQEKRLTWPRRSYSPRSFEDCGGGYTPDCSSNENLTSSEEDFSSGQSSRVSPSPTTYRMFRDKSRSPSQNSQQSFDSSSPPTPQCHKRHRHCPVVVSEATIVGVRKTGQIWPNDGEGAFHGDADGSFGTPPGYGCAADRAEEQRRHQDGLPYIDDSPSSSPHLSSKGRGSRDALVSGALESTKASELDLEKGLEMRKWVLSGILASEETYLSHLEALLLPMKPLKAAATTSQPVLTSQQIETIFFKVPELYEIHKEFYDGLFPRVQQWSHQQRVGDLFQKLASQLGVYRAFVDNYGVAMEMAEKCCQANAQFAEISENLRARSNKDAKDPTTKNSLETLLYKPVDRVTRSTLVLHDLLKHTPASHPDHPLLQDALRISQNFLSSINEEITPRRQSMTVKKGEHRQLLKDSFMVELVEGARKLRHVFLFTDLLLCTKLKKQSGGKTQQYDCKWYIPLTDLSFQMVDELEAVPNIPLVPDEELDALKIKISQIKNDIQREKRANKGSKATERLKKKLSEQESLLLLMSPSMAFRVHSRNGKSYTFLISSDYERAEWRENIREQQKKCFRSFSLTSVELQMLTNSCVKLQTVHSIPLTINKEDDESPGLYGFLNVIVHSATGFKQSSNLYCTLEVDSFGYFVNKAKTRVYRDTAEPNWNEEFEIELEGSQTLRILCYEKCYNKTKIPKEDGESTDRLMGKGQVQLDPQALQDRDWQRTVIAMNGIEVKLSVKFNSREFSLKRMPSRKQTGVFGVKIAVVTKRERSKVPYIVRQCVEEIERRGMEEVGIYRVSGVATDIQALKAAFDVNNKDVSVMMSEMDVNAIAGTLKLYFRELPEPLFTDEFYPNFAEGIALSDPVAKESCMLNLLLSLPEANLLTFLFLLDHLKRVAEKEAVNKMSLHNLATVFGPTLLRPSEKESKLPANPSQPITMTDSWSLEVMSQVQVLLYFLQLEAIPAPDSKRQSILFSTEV
assay info: Inhibition of BCR/ABL p210 autophosphorylation in human K562 cells after 2 hrs by Western blot analysis
Assay type: cell-based
measurement type: IC50 (µM)

>>> result("O=C(O)c1ccc(C(=O)/C(=C\\c2ccc(Cl)c([N+](=O)[O-])c2)SCc2ccccc2F)cc1")
10
>>> result("O=C(O)c1ccc(C(=O)/C(=C\\c2ccc(Br)c([N+](=O)[O-])c2)SCc2ccc(Br)cc2)cc1")
10

A = CN1CCN(CCNC(=O)c2ccc(C(=O)/C(=C\c3ccc(F)c([N+](=O)[O-])c3)SCc3ccc(Br)cc3)cc2)CC1
B = O=C(O)c1ccc(C(=O)/C(=C\c2ccc(F)c([N+](=O)[O-])c2)SCc2ccc(Br)cc2)cc1
C = O=C(O)c1ccc(C(=O)/C(=C\c2ccc(F)c([N+](=O)[O-])c2)SCc2ccccc2Cl)cc1
D = O=C(O)c1ccc(C(=O)/C(=C\c2ccc(F)c([N+](=O)[O-])c2)SCc2ccc(C(F)(F)F)cc2)cc1
Please rank these compounds by IC50 in descending order. // rank by listing labels in the order requested
C, A, B, D
(C: 10 µM, A: 2.5 µM, B: 0.5 µM, D: 0.2 µM)

* * *

Tested on: DU-145
assay info: Growth inhibition of human DU145 cells after 96 hrs by trypan blue exclusion assay
Type: functional
condition label: DU-145, 96 h
measurement type: GI50 (µM)

>>> result("COc1ccc(/C=C(\\C(=O)c2ccc(Cl)cc2)S(=O)(=O)c2ccc(Br)cc2)cc1")
10
>>> result("COc1ccc(OC)c(/C=C(/SCc2ccc(Cl)c(Cl)c2)C(=O)c2ccc(Cl)cc2)c1")
10
>>> result("O=C(/C(=C\\c1ccccc1OCc1ccccc1)Sc1ccccc1Cl)c1ccccc1Cl")
50

P = COc1cc(/C=C(/Sc2ccc(Br)cc2)C(=O)c2ccc(Br)cc2)ccc1O
Q = O=C(/C(=C\c1ccc(O)c([N+](=O)[O-])c1)SCc1ccc(Br)cc1)c1ccc([N+](=O)[O-])cc1
Which entry has a larger number for GI50, P or Q ? Indicate which entry you chose by stating its label.
Q
(Q: 10 µM, P: 1 µM)

* * *

Tested on: DU-145
assay info: Growth inhibition of human DU145 cells after 96 hrs by trypan blue exclusion assay
Type: functional
condition label: DU-145, 96 h
measurement type: GI50 (µM)

Some compounds with known GI50 results, for comparison:
>>> result("O=C(/C(=C/c1ccc(Cl)cc1)Cc1c[nH]c2ccccc12)c1ccc(Cl)cc1Cl")
10
>>> result("COc1ccc(/C=C(/Sc2ccc(F)cc2)C(=O)c2ccc(OC)cc2)cc1")
25
>>> result("O=C(/C(=C\\c1ccc2ccccc2n1)SCc1ccc(F)cc1)c1ccc(Br)cc1")
25

I = Cc1ccc(S(=O)(=O)/C(=C/c2cccs2)C(=O)c2ccc(Cl)cc2)cc1
II = Cc1ccc(S/C(=C/c2ccc(-c3ccccc3)cc2)C(=O)c2ccc(Br)cc2)cc1
III = O=C(/C(=C\c1ccc(O)c([N+](=O)[O-])c1)SCc1ccc(Br)cc1)c1c(F)c(F)c(F)c(F)c1F
Arrange these compounds by their GI50, starting with the largest number. # format: label list in the order the request specifies
II, I, III
(II: 50 µM, I: 25 µM, III: 10 µM)

* * *

System: DU-145
assay info: Growth inhibition of human DU145 cells after 96 hrs by trypan blue exclusion assay
Type: functional
condition label: DU-145, 96 h
measurement type: GI50 (µM)

Some entries whose results are on file:
>>> result("COc1ccc(/C=C(/SCc2ccc(F)cc2)C(=O)c2ccc(Cl)cc2)c(OC)c1OC")
10
>>> result("CCOc1ccc(/C=C(/SCc2ccc(F)cc2)C(=O)c2ccc(Br)cc2)cc1OC")
50
>>> result("O=C(/C(=C\\c1ccc(F)cc1C(F)(F)F)SCc1ccc(F)cc1)c1ccc(Br)cc1")
10
>>> result("O=C(/C(=C\\c1ccc(O)c([N+](=O)[O-])c1)S(=O)(=O)Cc1ccc(Br)cc1)c1ccc(Br)cc1")
10
>>> result("O=C(/C(=C\\c1ccccc1OCc1ccccc1)SCc1ccc(F)cc1)c1ccc(Cl)cc1")
1
>>> result("Cc1ccc(CS(=O)(=O)/C(=C/c2ccc(Br)cc2)C(=O)c2ccc(Cl)cc2)cc1")
25
>>> result("O=C(/C(=C\\c1ccc([N+](=O)[O-])c(O)c1)SCc1ccc(Br)cc1)c1c(F)c(F)c(F)c(F)c1F")
10
>>> result("CCOc1ccc(/C=C(/Sc2ccc(C)cc2)C(=O)c2ccc(Cl)cc2)cc1OC")
25

1 = O=C(/C(=C\c1ccc(Cl)cc1Cl)Sc1ccc(Br)cc1)c1ccc(Br)cc1
2 = Cc1ccc(CS/C(=C/c2ccc(F)cc2C(F)(F)F)C(=O)c2ccc(Cl)cc2)cc1
3 = COc1ccccc1/C=C(/SCc1ccc(Cl)cc1)C(=O)c1ccc([N+](=O)[O-])cc1
4 = O=C(C(=Cc1ccc(I)cc1)S(=O)(=O)Cc1ccc(I)cc1)c1ccc(Br)cc1
Rank entries according to their GI50, from the largest number down. Submit the labels in the order that the ranking request calls for.
2, 4, 3, 1

* * *

target system: Bcr/Abl fusion protein (Homo sapiens)
assay info: Inhibition of BCR/ABL p210 autophosphorylation in human K562 cells after 2 hrs by Western blot analysis
Assay type: cell-based
measurement type: IC50 (nM)

Below, each entry is followed by its recorded IC50 result.
>>> result("O=C(O)c1ccc(C(=O)/C(=C\\c2ccc(F)c([N+](=O)[O-])c2)SCc2ccc(F)cc2)cc1")
2500
>>> result("Cc1ccc(CS/C(=C/c2ccc(F)c([N+](=O)[O-])c2)C(=O)c2ccc(C(=O)O)cc2)cc1")
2500
>>> result("O=C(/C(=C\\c1ccc(F)c([N+](=O)[O-])c1)SCc1ccc(F)cc1)c1ccc(F)cc1")
2500
>>> result("O=C(/C(=C\\c1ccc(F)c([N+](=O)[O-])c1)SCc1ccc(F)cc1)c1ccc(C(=O)N2CCN(CCO)CC2)cc1")
500

a = CCN(CC)CCNC(=O)c1ccc(C(=O)/C(=C\c2ccc(F)c([N+](=O)[O-])c2)SCc2ccc(Br)cc2)cc1
b = O=C(O)c1ccc(C(=O)/C(=C\c2ccc(Cl)c([N+](=O)[O-])c2)SCc2ccc(Cl)cc2Cl)cc1
Determine, for a and b , which has the greater value of IC50. Answer by stating the label of the chosen item.
b

* * *

Test system: DU-145
assay info: Growth inhibition of human DU145 cells after 96 hrs by trypan blue exclusion assay
Assay type: functional
condition label: DU-145, 96 h
measurement type: GI50 (µM)

Please review the entries below; each comes with its answer.
>>> result("O=C(O)c1ccc(C(=O)/C(=C\\c2ccc(F)c([N+](=O)[O-])c2)SCc2ccccc2Cl)cc1")
1
>>> result("Cc1ccc(CS/C(=C/c2ccc(C)s2)C(=O)c2ccc(Cl)cc2)cc1")
50
>>> result("O=C(/C(=C\\c1ccc([N+](=O)[O-])c(O)c1)S(=O)(=O)c1ccc(Br)cc1)c1c(F)c(F)c(F)c(F)c1F")
1
>>> result("O=C(/C(=C\\c1ccccc1OCc1ccccc1)S(=O)(=O)Cc1ccc(Cl)cc1)c1ccc(Br)cc1")
10
>>> result("Cc1ccc(CS/C(=C/c2ccc(F)c([N+](=O)[O-])c2)C(=O)c2ccc(C(=O)O)cc2)cc1")
1

P = Cc1ccc(S/C(=C/c2ccc(F)cc2C(F)(F)F)C(=O)c2ccc(Br)cc2)cc1
Q = CCOc1ccc(/C=C(/Sc2ccc(C)cc2)C(=O)c2ccc(Br)cc2)cc1OC
Would you let me know which has the greater GI50 value, P or Q ? # answer = label of selected item
Q

a = Cc1ccc(S(=O)(=O)/C(=C/c2ccc(Cl)cc2)C(=O)c2ccc(Cl)cc2)cc1
b = Cc1cc(C)cc(/C=C(\C(=O)c2ccc(Br)cc2)S(=O)(=O)Cc2ccc(F)cc2)c1
Which one would you say has the larger GI50 value: a , or b ? Kindly state the label of the option you pick.
b
(b: 10 µM, a: 1 µM)

P = COc1ccccc1/C=C(/SCc1ccc(Cl)cc1)C(=O)c1ccc(Cl)cc1
Q = O=C(/C(=C\c1ccc(O)cc1)SCc1ccc(Cl)cc1)c1ccc(Cl)cc1
Given P and given Q , which shows the smaller recorded GI50? // output: label of the selected item
P
(P: 1 µM, Q: 10 µM)

P = COc1cccc(OC)c1/C=C(\C(=O)c1ccc(Br)cc1)S(=O)(=O)c1ccc(Br)cc1
Q = O=C(O)c1ccc(C(=O)/C(=C\c2ccc(Cl)c([N+](=O)[O-])c2)SCc2ccc(C(F)(F)F)cc2)cc1
Consider entries P and Q . Which has the numerically lower GI50? Kindly give the label for the entry you pick.
Q

a = COc1ccc(/C=C(\C(=O)c2ccc(Br)cc2)S(=O)(=O)Cc2ccc(Cl)cc2)c(O)c1
b = O=C(/C(=C\c1ccc(F)c([N+](=O)[O-])c1)SCc1ccc(F)cc1)c1ccc(F)cc1
Sort a and b by GI50 descending and give the first. Please reply using the label of the selected record.
a
